Please provide measured IC50 for the entries that follow.
assaySystem: ALK2 (GST-modified kinase domain ACVR1(145-509)) (Homo sapiens, UniProt Q04771)
Sequence (Q04771 145-509): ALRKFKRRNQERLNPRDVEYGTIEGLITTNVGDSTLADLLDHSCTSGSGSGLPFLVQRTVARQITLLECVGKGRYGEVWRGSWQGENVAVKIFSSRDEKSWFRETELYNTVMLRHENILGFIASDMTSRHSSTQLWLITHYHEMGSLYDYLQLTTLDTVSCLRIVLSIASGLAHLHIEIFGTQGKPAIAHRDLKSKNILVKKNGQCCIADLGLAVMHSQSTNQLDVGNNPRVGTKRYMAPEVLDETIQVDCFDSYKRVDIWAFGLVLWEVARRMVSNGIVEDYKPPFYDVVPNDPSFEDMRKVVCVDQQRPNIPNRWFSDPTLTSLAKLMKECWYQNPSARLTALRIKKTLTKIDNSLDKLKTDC
Counter-ions that a name gives are not always drawn.
Answers are plain numbers, in nM.

Below, each entry is followed by its recorded IC50 result.
| molecule | reportedEndpoint | unitAbbrev | experimentalValue |
| --- | --- | --- | --- |
| O=c1[nH]cc(-c2ccc(CO)cc2)cc1-c1nc2cc(N3CCNCC3)ccc2[nH]1 | IC50 | nM | 8 |
| Cc1[nH]c2ncccc2c1-c1c[nH]c(=O)c(-c2nc3cc(N4CCN(C)CC4)ccc3[nH]2)c1 | IC50 | nM | 17 |
| CN1CCN(c2ccc3[nH]c(-c4cc(-c5ccnc6[nH]ccc56)c[nH]c4=O)nc3c2)CC1 | IC50 | nM | 5 |
| CN1CCCN(c2ccc3[nH]c(-c4cc(-c5cccc(CO)c5)c[nH]c4=O)nc3c2)CC1 | IC50 | nM | 11 |
| CN1CCN(c2ccc3[nH]c(-c4cc(-c5cccc(CO)c5F)c[nH]c4=O)nc3c2)CC1 [Compound A37, trifluoroacetate] | IC50 | nM | 30 |
| O=c1[nH]cc(-c2cccc(CO)c2F)cc1-c1nc2cc(N3CCNCC3)ccc2[nH]1 | IC50 | nM | 22 |
| NC1CCN(c2ccc3[nH]c(-c4cc(-c5cccc(CO)c5)c[nH]c4=O)nc3c2)CC1 [Compound A26, dihydrochloride] | IC50 | nM | 31 |
| O=c1[nH]cc(-c2cccc(CO)c2)cc1-c1nc2cc(N3CCOCC3)ccc2[nH]1 | IC50 | nM | 94 |

// for each molecule below, give its IC50
1. O=c1[nH]cc(-c2cc(CO)ccc2Cl)cc1-c1nc2cc(N3CCNCC3)ccc2[nH]1 [Compound A22, dihydrochloride]
2. O=c1[nH]cc(-c2ccnc3[nH]ccc23)cc1-c1nc2cc(Oc3ccncc3)ccc2[nH]1

1. 16
2. 56
